Tested on: ACHN renal
Experiment: NCI tumour cell line growth inhibition, 48 h
reported-property: TGI

Recorded results for 2 molecules are shown here.
COC(=O)C1(N2CCOCC2)CCC([C@@H](c2ccccc2)C(C)[N+](=O)[O-])C1 (stereo partly drawn) : > 100 µM
O=S1(=O)CC#CC[C@@H](CO)[C@@H](CO)CC#CC1 : > 100 µM

Consider now this further molecule.
N/C(=N/O)NOCCC(N)C(=O)O (stereo not drawn) has a reported TGI of > 100 µM

###

System: BT-549 breast
Experiment: NCI tumour cell line growth inhibition, 48 h
Give measured TGI for each item. Keep answers brief.

Below are 3 compounds. Give each one its TGI.
1. Clc1cccc(C=NC23CC4CC(CC(C4)C2)C3)c1Cl
2. Cc1cc2nc3c(C)c4ccccc4c(C)n3c2cc1C
3. Cc1cccc(Nc2ncc(-c3ccccc3)o2)c1

Result block:
1: > 10 µM; 2: > 10 µM; 3: > 25 µM
